procedure_details: physchem
Assay type: physicochemical
run_parameters: C18 column, pH 7.4, ACN gradient
# CHIC18 values compiled below

molecule	CHIC18
Cc1ccc(C(C)C)c(OC(=O)CCCCCN2CCN(c3cc4c(cc3F)c(=O)c(C(=O)O)cn4C3CC3)CC2)c1 [Compound 14]	121.48
CC1CCC(C(C)C)C(OC(=O)CCCCCOC(=O)c2cn(C3CC3)c3cc(N4CCN(CCCCCC(=O)OC5CC(C)CCC5C(C)C)CC4)c(F)cc3c2=O)C1 (stereo not drawn) [Compound 8]	179.66
Cc1ccc(C(C)C)c(OC(=O)CCCCN2CCN(c3cc4c(cc3F)c(=O)c(C(=O)O)cn4C3CC3)CC2)c1 [Compound 13]	117.28
Cc1ccc(C(C)C)c(OCC(=O)N2CCN(c3cc4c(cc3F)c(=O)c(C(=O)O)cn4C3CC3)CC2)c1 [Compound 9]	129.41
CC1CCC(C(C)C)C(OC(=O)CCN2CCN(c3cc4c(cc3F)c(=O)c(C(=O)O)cn4C3CC3)CC2)C1 (stereo not drawn) [Compound 3]	129.99
CC1CCC(C(C)C)C(OC(=O)CCCCOC(=O)c2cn(C3CC3)c3cc(N4CCN(CCCCC(=O)OC5CC(C)CCC5C(C)C)CC4)c(F)cc3c2=O)C1 (stereo not drawn) [Compound 7]	170.54
